Below, each entry is listed with its recorded microsomal CLint.
- PROCEDURE SUMMARY: Metabolic stability, rat liver microsomes
- Format: in vitro ADME
- EXPERIMENTAL CONTEXT: in the presence of NAD+, NADPH, or in the absence of cofactors
OUTCOME MEASURE: microsomal CLint (µL/min/mg)

[
  {
    "QUERY SMILES": "O=C1NCc2cc(OCCNC[C@H](O)COc3ccc4c(c3)OC[C@@H](COCC3CC3)O4)ccc21",
    "CENSOR SYMBOL": "=",
    "MEAS VALUE": 0.18
  },
  {
    "QUERY SMILES": "NC(=O)c1ccc(OCCNC[C@H](O)COc2ccc3c(c2)OC[C@@H](COCC2CC2)O3)cc1",
    "CENSOR SYMBOL": "<",
    "MEAS VALUE": 0.1
  }
]

* * *

- PROCEDURE SUMMARY: PK analysis in male Sprague-Dawley rats
- Format: in vivo
- EXPERIMENTAL CONTEXT: male, Sprague-Dawley, plasma, iv; rat, i.v. 6 mg/kg, hydrochloride salt forms, mean ± SD n = 3; read-out: t1/2, app (converted)
- Method: Blood samples were centrifuged, supernatant plasma was removed, and plasma concentrations of compounds were determined by LC-MS. […] Studies were carried out by CDCO.
Below, each entry is listed with its recorded half-life.

[
  {
    "MOLECULE": "O=C1NCc2cc(OCCNC[C@H](O)COc3ccc4c(c3)OC[C@@H](COCC3CC3)O4)ccc21 [NDD-825]",
    "half-life [h]": 7.3
  },
  {
    "MOLECULE": "NC(=O)c1ccc(OCCNC[C@H](O)COc2ccc3c(c2)OC[C@@H](COCC2CC2)O3)cc1 [NDD-713]",
    "half-life [h]": 1.6
  }
]

* * *

- PROCEDURE SUMMARY: PK analysis in male Sprague-Dawley rats
- Format: in vivo
- EXPERIMENTAL CONTEXT: male, Sprague-Dawley, plasma, po; rat, p.o. 20 mg/kg, hydrochloride salt forms
Below, each entry is listed with its recorded Cmax.
OUTCOME MEASURE: Cmax (nM)

[
  {
    "QUERY SMILES": "O=C1NCc2cc(OCCNC[C@H](O)COc3ccc4c(c3)OC[C@@H](COCC3CC3)O4)ccc21",
    "UNIT OF MEASURE": "nM",
    "MEAS VALUE": 1400
  },
  {
    "QUERY SMILES": "NC(=O)c1ccc(OCCNC[C@H](O)COc2ccc3c(c2)OC[C@@H](COCC2CC2)O3)cc1",
    "UNIT OF MEASURE": "nM",
    "MEAS VALUE": 2000
  }
]

* * *

- PROCEDURE SUMMARY: Lipophilicity (chromatographic logD)
- Type: physicochemical
- EXPERIMENTAL CONTEXT: octanol/water, estimated from chromatographic retention; pH 7.4, chromatographic estimate; read-out: Distribution coefficient, pH 7.4 (gLogDpH 7.4)
OUTCOME MEASURE: chromatographic logD

[
  {
    "QUERY SMILES": "NC(=O)c1ccc(OCCNC[C@H](O)COc2ccc3c(c2)OC[C@@H](COCC2CC2)O3)cc1",
    "MEAS VALUE": 2.3
  },
  {
    "QUERY SMILES": "O=C1NCc2cc(OCCNC[C@H](O)COc3ccc4c(c3)OC[C@@H](COCC3CC3)O4)ccc21",
    "MEAS VALUE": 2
  }
]
